Provenance of the data: ChEMBL document CHEMBL1136785

Parameter 'readout' = Ki; parameter 'system' = Gonadotropin-releasing hormone receptor (Homo sapiens, UniProt P30968).
Sequence (P30968 whole entry): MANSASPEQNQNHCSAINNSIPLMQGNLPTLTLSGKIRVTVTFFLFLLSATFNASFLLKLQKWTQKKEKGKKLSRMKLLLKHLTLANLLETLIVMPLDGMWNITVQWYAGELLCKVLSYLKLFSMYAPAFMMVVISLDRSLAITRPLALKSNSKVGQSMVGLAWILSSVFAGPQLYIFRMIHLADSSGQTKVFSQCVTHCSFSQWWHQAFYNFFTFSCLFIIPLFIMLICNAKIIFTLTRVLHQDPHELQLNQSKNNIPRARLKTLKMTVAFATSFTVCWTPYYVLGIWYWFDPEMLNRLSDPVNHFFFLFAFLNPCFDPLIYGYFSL
// units = nM; emit number, no label

Recorded Ki, per entry:
Q) # query: Ki of entry COc1cccc(-c2c(C)n(Cc3ccccc3F)c3nc(C(C)(C)CNCCc4ccccn4)cn3c2=O)c1
A) 350

Q) Try this compound next: COc1cccc(-c2c(C)n(Cc3ccccc3F)c3nc(C(C)(C)C)c(CN(C)CCc4ccccn4)n3c2=O)c1
A) 5.2

Q) Try this compound next: COC(=O)C(C)(C)c1nc2n(Cc3ccccc3F)c(C)c(-c3cccc(OC)c3)c(=O)n2c1CN(C)Cc1cccnc1
A) 400

New cases:
Q) # query: Ki of entry CCN(CC)CCN(C)Cc1c(C(C)(C)C)nc2n(Cc3ccccc3F)c(C)c(-c3cccc(OC)c3)c(=O)n12
A) 260

----------
Target: Gonadotropin-releasing hormone receptor (Homo sapiens, UniProt P30968)
Quantity Name: log10(Ki) (log10 of the value in nM)
Each number you see is log10 of Ki, and the unit inside the log is nM.

Recorded log10(Ki), per entry:
Q) Quick check: log10(Ki) on Gonadotropin-releasing hormone receptor (Homo sapiens, UniProt P30968), item COc1cccc(-c2c(C)n(Cc3ccccc3F)c3nc4c(n3c2=O)CN(CCc2ccccn2)CC4(C)C)c1 ?
A) 4.08

Q) Try this compound next: COC(=O)C(C)(C)c1nc2n(Cc3ccccc3F)c(C)c(-c3cccc(OC)c3)c(=O)n2c1CN1CCN(C)CC1
A) 3.89

Q) Try this compound next: COc1cccc(-c2c(C)n(Cc3ccccc3F)c3nc(C(C)(C)C)c(CN(C)Cc4ccccn4)n3c2=O)c1
A) 1.04

Q) Try this compound next: COc1cccc(-c2c(C)n(Cc3ccccc3F)c3nc(C(C)(C)C)c(CNCc4ccccc4)n3c2=O)c1
A) 2.38

Q) Try this compound next: COCCN(C)Cc1c(C(C)(C)C)nc2n(Cc3ccccc3F)c(C)c(-c3cccc(OC)c3)c(=O)n12
A) 2.63

Q) Try this compound next: COc1cccc(-c2c(C)n(Cc3ccccc3F)c3nc(C(C)(C)C)c(CN(C)Cc4ccccc4)n3c2=O)c1
A) 1.86

Q) Try this compound next: COc1cccc(-c2c(C)n(Cc3ccccc3F)c3nc(C(C)(C)C)c(CNCC4CCCC4)n3c2=O)c1
A) 3.81

Q) Try this compound next: CCCCN(C)Cc1c(C(C)(C)C(=O)OC)nc2n(Cc3ccccc3F)c(C)c(-c3cccc(OC)c3)c(=O)n12
A) 2.51

Now let's try a different one.
Q) Quick check: log10(Ki) on Gonadotropin-releasing hormone receptor (Homo sapiens, UniProt P30968), item COC(=O)C(C)(C)c1nc2n(Cc3ccccc3F)c(C)c(-c3cccc(OC)c3)c(=O)n2c1CN(C)CCc1ccccc1 ?
A) 2.11
